TEST METHOD NOTES: yeast display, Sf9 membrane polyspecificity reagent, FACS + sequencing; frameworks hold sequencing errors
MEASURED QUANTITY: polyreactivity (PSR sort gate)

Examples with their reported polyreactivity (PSR sort gate) follow.
QVQLVESGGGLVQAGGSLRLSCAASGRIFNMYAMGWYRQAPGKERELVAAISVSGTRTYYADSVKGRFTISRDNAKNTVYLQMNSLKPEDTAVYYCAADSYGGVWSEHMYYWGQGTQVTVSS : low polyreactivity
QVQLVESGGGLVQAGGSLRLSCAASGRTFFYYSMGWYIQAPGKEREFVSGISKSGSSTYYADSVKGRFTISRDNPKNTVYLQLISLKPEDTADSYCAAVSKRGAGGRRTEYWGQGTQVTVSA : high polyreactivity
QVHLQESGGGLVQACGSQRLSCAARGSISEGQDMGWYRRAPGKEREFVAGIAPGATTYYADSVRGRFTISRDNANNTVSLQMNSLKPEDTAVYYCAARTVTETDHDYWGQGTQVTVSS : low polyreactivity
QVQLVESGGGLVQAGGSLRLSCAASGYTFRTNVMGWYRQAPGTERELVATINWRGGSTYYADSVKGRFTISRDYAKNTVYLLINSLKPEDTAVYYCAADGLSNVRQMDYWGQGTQVTVSS : low polyreactivity
QVQLVESGGGLVQAGGSLRLSCAASGLTITSNAMGWYRQAPGKERELVASITWSGGSTSYADSVKGRFTISRDNAKNTVYLQMNSLKPEDTAVYDCAADRQRSHRVGTKGHRVGYWGQGTQVTVSS : high polyreactivity
QVQLVESGGGLVQAGGSLRLSCAASGFTFRYYAMGCYRQAPGKVRELVAAITGSGTRTYYADSVKGRFTISRDNAKNTVYLQMNSLKPEDTALYYCNAPRQPRWFDYWGQGTQVTVSS : high polyreactivity
QVQLVESGGGLVQAGGSHRLSCAASGRIYYYTMGWYRQAPGKERELVATITSSGSSTYYADSVKGRFTISRDNAKNTFYLQLNRLKPEDTAVYYCAAAGGGVRKVWGGSRYGYWGQGTQVTVSS : high polyreactivity
QVQLVESGAGLVQAGGSLRLSCAASGRTFGSNAMGWYRQAPGKERELVAAITRGGSTNYADSVKGRFTISRDNAKNTVYLQMNSLKPEDTAVYYCAKRSYYRYRYYYWGQGTQVSVSS : high polyreactivity
QVQLVESGGGLVQAGGSLRLSCAASGRIITYNAMGWYRQAPGKERELVAAISTTGGRTYYADSVKGRFTISRDNAKNTVYLQMNSLKPEDTAVYYCNAVLKRPLAYHVTYDYWGQGTQVTVSS : high polyreactivity
QVQLVESGGGLVQAGRCLRLSCAASGITFVPNAMGWSRQAPGKERELVAAISSGGTYADSVKGRFTISRDNAKNTVYLQMNSLKPEDTALYYCNADTDYIRWIYGYWGQVTQVTVSS : low polyreactivity

For the sequence shown here, QVQLVESGGGLVQAGGSLRLSCAASGRIFYLYARGWYRQAPGKERELVATISSSGGRTYYADSVKGRFTISRDNAKNTVYLQMNSLKPEDTAVYYCNAYGEDDGPYPFPGYNYWGQGTQVTVSS , give the reported polyreactivity (PSR sort gate).
low polyreactivity

For the sequence shown here, QVQLVESGGGLVQAGASLRLSCAASGRTFETNAMGWYSQAPGKEREFVASINWSGGSTYYSDSVKGRFTISRDNAKNTVYLQMNSLKPEDTAVYYCAADHSYWDWWSYYYWGQGTQVTVSS , give the reported polyreactivity (PSR sort gate).
low polyreactivity

For the sequence shown here, QVQLEESGGRLVQAGGSLRLTSAASGGIFSVYAMGWYRQAPGKERQLVASITVSGGSTSYADSVKGRFTISRDNAKNTVYLQMKSLKPEDTAVYYCAVYQYVGYTMDYWGQGTKVTVSS , give the reported polyreactivity (PSR sort gate).
low polyreactivity

For the sequence shown here, QVQLVESGGGLVQAGGSLRLSCAASGRIFVKNTMGLYRQAPGKERELVAAISWYGGSTYYADSVKGRFTISRDNAMNTVYLQMNSLKPEDTAFYYCAAATWQWPWYDYWGQGTKVTVSS , give the reported polyreactivity (PSR sort gate).
high polyreactivity

For the sequence shown here, QVQLVESGGGLVQAGGSLRLSCAASGSTLNYYAMGWYRQAPGKERELVATIDKSGGSTRYADSVKGRFTISRDNAKNTVYLQMNSLKPEDTAVYYCAVDSPYQHDDYWGQGTQVTVSS , give the reported polyreactivity (PSR sort gate).
low polyreactivity
